Categorized via logP: bucket A: < 4; bucket B: ≥ 4 and < 5; bucket C: ≥ 5

Example results:
O=C(Nc1ccc(Br)cc1)c1ccccc1O; bucket B
O=C(Nc1ccc(Cl)cc1)c1ccccc1O; bucket B
O=C(Nc1ccc(Cl)cc1)c1cc(Cl)cc(Cl)c1O; bucket C

Now for a further compound.
Challenge: Kindly state the category for this compound: `O=C(Nc1ccccc1[N+](=O)[O-])c1ccccc1O`
Response given: bucket A

* * *

The compounds listed here are annotated with their logP.
In your answer, state the number alone without any accompanying words.

Check out these entries, answers already filled in.
O=C(Nc1ccc(Cl)cc1[N+](=O)[O-])c1cc(Br)cc(Br)c1O; 5.05
O=C(Nc1ccccc1)c1cc(Cl)ccc1O; 4.05
O=C(Nc1ccc(Cl)cc1[N+](=O)[O-])c1ccccc1O; 4.09
O=C(Nc1ccc(Cl)cc1)c1cc(Br)ccc1O; 5.02
Cc1cc([N+](=O)[O-])ccc1NC(=O)c1cc(Cl)cc(Cl)c1O; 4.51

Challenge: Identify measured logP associated with `Cc1ccccc1NC(=O)c1cc(Cl)ccc1O`
Response given: 4.21

Challenge: Identify measured logP associated with `O=C(Nc1ccc(F)cc1F)c1cc(Br)cc(Br)c1O`
Response given: 4.99

Challenge: Identify measured logP associated with `Cc1cc(Cl)ccc1NC(=O)c1cc(F)ccc1O`
Response given: 4.89

Challenge: Identify measured logP associated with `Cc1cc(Br)ccc1NC(=O)c1cc(F)ccc1O`
Response given: 5.15
